Source: paper PMC7914897

- System: UACC-257 (Melanoma)
- procedure-summary: NCI-60 screen (SRB, 48 h)
- conditions-used: Homo sapiens, UACC-257, 48 h, read-out: TGI
observable: IC (TGI)
Answer as a quantity: numeral, then unit.

Query Cc1ccc(S(=O)(=O)OC[C@@]2(C)CC[C@]3(C)CC[C@]4(C)C(=C3C2)C=C[C@@H]2[C@@]3(C)CCCNC(C)(C)[C@@H]3CC[C@]24C)cc1 [Compound 16] yields IC (TGI) of 3.68 µM

Record CC1(C)CC[C@]2(CO)CC[C@]3(C)C(=CC[C@@H]4[C@@]5(C)CCCNC(C)(C)[C@@H]5CC[C@]43C)[C@@H]2C1 [Compound 3, azepanoerythrodiol] . Reported IC (TGI): 6.47 µM

The recorded IC (TGI) for Cc1ccc(S(=O)(=O)OC[C@]23CCC(C)(C)C[C@H]2C2=CC[C@@H]4[C@@]5(C)CCCNC(C)(C)[C@@H]5CC[C@@]4(C)[C@]2(C)CC3)cc1 [Compound 15] is 3.54 µM

----------
Please provide measured IC (TGI) for the entries that follow.
- Test system: ACHN (Renal cancer)
- procedure-summary: NCI-60 screen (SRB, 48 h)
- conditions-used: Homo sapiens, 48 h, read-out: TGI
Give just the number in µM; leave the unit off.

Noted for C=C(C)[C@@H]1CC[C@]2(COS(=O)(=O)c3ccc(C)cc3)CC[C@]3(C)[C@@H](CC[C@@H]4[C@@]5(C)CCCNC(C)(C)[C@@H]5CC[C@]43C)[C@@H]12 [Compound 12] : its IC (TGI) reads 3.45

Input Cc1ccc(S(=O)(=O)OC[C@]23CCC(C)(C)C[C@H]2C2=CC[C@@H]4[C@@]5(C)CCCNC(C)(C)[C@@H]5CC[C@@]4(C)[C@]2(C)CC3)cc1 [Compound 15] . Output IC (TGI): 3.07

Kindly note the recorded IC (TGI) for C[C@H]1[C@H](C)CC[C@]2(C(=O)Nc3ccc4ncccc4c3)CC[C@]3(C)C(=CC[C@@H]4[C@@]5(C)CCCNC(C)(C)[C@@H]5CC[C@]43C)[C@H]12 [Compound 14] , which is 3.24

C=C(C)[C@@H]1CC[C@]2(C)[C@H](CC=C3[C@@H]4[C@@H](C)[C@H](C)CC[C@]4(CO)CC[C@]32C)[C@@]1(C)CCCN [Compound 19] yielded IC (TGI) of 3.4

The recorded IC (TGI) for CC1(C)CC[C@]23CC[C@]4(C)[C@H](CC[C@@H]5[C@@]6(C)CCCNC(C)(C)[C@@H]6CC[C@]54C)[C@H]2[C@H]1OC3 [Compound 7, Azepanoallobetulin] is 3.08

Record C=C(C)[C@@H]1CC[C@]2(C(=O)N[C@H](CO)Cc3ccccc3)CC[C@]3(C)[C@H](CC[C@@H]4[C@@]5(C)CCCNC(C)(C)[C@@H]5CC[C@]43C)[C@@H]12 [Compound 11] . Reported IC (TGI): 3.16

Sample C=C(C)C1CCC2(CO)CCC3(C)C(CCC4C5(C)CCCNC(C)(C)C5CCC43C)C12 (centres unmarked) [Compound 1, Azepanobetulin] ; IC (TGI) observed: 3.09

Sample C[C@H]1[C@H](C)CC[C@]2(CO)CC[C@]3(C)C(=CC[C@@H]4[C@@]5(C)CCCNC(C)(C)[C@@H]5CC[C@]43C)[C@H]12 [Compound 4, azepanouvaol] ; IC (TGI) observed: 3.06

Record summary for C=C(C)[C@@H]1CCC=C2CC[C@]3(C)[C@H](CC[C@@H]4[C@@]5(C)CCCNC(C)(C)[C@@H]5CC[C@]43C)[C@H]21 [Compound 8] : reported IC (TGI) = 3.26

// field: IC (TGI); key: CC(C)=C1CCC=C2CC[C@]3(C)[C@H](CC[C@@H]4[C@@]5(C)CCCNC(C)(C)[C@@H]5CC[C@]43C)[C@H]21 [Compound 9] ; value = 3.14

Noted for C=C(C)[C@@H]1CC[C@]2(C)[C@H](C=CC3=C4C[C@@](C)(CO)CC[C@]4(C)CC[C@]32C)[C@@]1(C)CCCN [Compound 20] : its IC (TGI) reads 3.14

Input Cc1ccc(S(=O)(=O)OC[C@@]2(C)CC[C@]3(C)CC[C@]4(C)C(=C3C2)C=C[C@@H]2[C@@]3(C)CCCNC(C)(C)[C@@H]3CC[C@]24C)cc1 [Compound 16] . Output IC (TGI): 3.1

The recorded IC (TGI) for entry CC1(C)NCCC[C@]2(C)[C@H]3C=CC4=C5C[C@@](C)(CO)CC[C@]5(C)CC[C@@]4(C)[C@]3(C)CC[C@@H]12 [Compound 6, azepano-glycyrrhetol-diene] equals 9.56

# IC (TGI) of CC1(C)CC[C@]2(CO)CC[C@]3(C)C(=CC[C@@H]4[C@@]5(C)CCCNC(C)(C)[C@@H]5CC[C@]43C)[C@@H]2C1 [Compound 3, azepanoerythrodiol] = 11.5

----------
- Test system: HS 578T (Breast cancer)
- procedure-summary: NCI-60 screen (SRB, 48 h)
- conditions-used: Homo sapiens, 48 h, read-out: TGI
observable: IC (TGI) (µM)
Write the number in µM without appending the unit.

// returns IC (TGI) for C=C(C)[C@@H]1CC[C@]2(C)[C@H](C=CC3=C4C[C@@](C)(CO)CC[C@]4(C)CC[C@]32C)[C@@]1(C)CCCN with HS 578T (Breast cancer); value = 4.07

Fill in: HS 578T (Breast cancer) IC (TGI) for C=C(C)[C@@H]1CC[C@]2(COS(=O)(=O)c3ccc(C)cc3)CC[C@]3(C)[C@@H](CC[C@@H]4[C@@]5(C)CCCNC(C)(C)[C@@H]5CC[C@]43C)[C@@H]12 = 3.94

Record for CC(C)=C1CCC=C2CC[C@]3(C)[C@H](CC[C@@H]4[C@@]5(C)CCCNC(C)(C)[C@@H]5CC[C@]43C)[C@H]21 under target or system HS 578T (Breast cancer): IC (TGI) reported as 4.04

I looked up CC1(C)CC[C@]2(CO)CC[C@]3(C)C(=CC[C@@H]4[C@@]5(C)CCCNC(C)(C)[C@@H]5CC[C@]43C)[C@@H]2C1 and its IC (TGI) for HS 578T (Breast cancer) was 24.7

Entry C=C(C)[C@@H]1CC[C@]2(C(=O)N[C@H](CO)Cc3ccccc3)CC[C@]3(C)[C@H](CC[C@@H]4[C@@]5(C)CCCNC(C)(C)[C@@H]5CC[C@]43C)[C@@H]12 under HS 578T (Breast cancer) had IC (TGI) of 3.78

Test item C=C(C)C1CCC2(CO)CCC3(C)C(CCC4C5(C)CCCNC(C)(C)C5CCC43C)C12 (stereo not shown) ; HS 578T (Breast cancer); reported IC (TGI) was 4.79

Measured IC (TGI) for this entry CC1(C)NCCC[C@]2(C)[C@H]3C=CC4=C5C[C@@](C)(CO)CC[C@]5(C)CC[C@@]4(C)[C@]3(C)CC[C@@H]12 on HS 578T (Breast cancer): 13.2

----------
- System: CNS cancer subpanel
- procedure-summary: NCI-60 screen, subpanel
- conditions-used: Homo sapiens, read-out: GI50 MG_MID
observable: GI50 (nM)
Output spec: scalar in nM, unitless text.

# GI50 measured on CNS cancer subpanel for item C=C(C)[C@@H]1CC[C@]2(C)[C@H](C=CC3=C4C[C@@](C)(CO)CC[C@]4(C)CC[C@]32C)[C@@]1(C)CCCN = 1670

Reported CNS cancer subpanel GI50 for item C[C@H]1[C@H](C)CC[C@]2(C(=O)Nc3ccc4ncccc4c3)CC[C@]3(C)C(=CC[C@@H]4[C@@]5(C)CCCNC(C)(C)[C@@H]5CC[C@]43C)[C@H]12 was 1670

Lab entry: CNS cancer subpanel assay, compound C=C(C)[C@@H]1CC[C@]2(C(=O)N[C@H](CO)Cc3ccccc3)CC[C@]3(C)[C@H](CC[C@@H]4[C@@]5(C)CCCNC(C)(C)[C@@H]5CC[C@]43C)[C@@H]12 , GI50 = 1510

The compound Cc1ccc(S(=O)(=O)OC[C@@]2(C)CC[C@]3(C)CC[C@]4(C)C(=C3C2)C=C[C@@H]2[C@@]3(C)CCCNC(C)(C)[C@@H]3CC[C@]24C)cc1 , tested on CNS cancer subpanel, showed GI50 of 1770

Bench note, CNS cancer subpanel: entry Cc1ccc(S(=O)(=O)OC[C@]23CCC(C)(C)C[C@H]2C2=CC[C@@H]4[C@@]5(C)CCCNC(C)(C)[C@@H]5CC[C@@]4(C)[C@]2(C)CC3)cc1 , its GI50 = 1780

Reported GI50 (CNS cancer subpanel) for entry C=C(C)[C@@H]1CC[C@]2(COS(=O)(=O)c3ccc(C)cc3)CC[C@]3(C)[C@@H](CC[C@@H]4[C@@]5(C)CCCNC(C)(C)[C@@H]5CC[C@]43C)[C@@H]12 is 1790

Entry CC1(C)CC[C@]23CC[C@]4(C)[C@H](CC[C@@H]5[C@@]6(C)CCCNC(C)(C)[C@@H]6CC[C@]54C)[C@H]2[C@H]1OC3 , CNS cancer subpanel data, GI50 value: 1580

Item C=C(C)C1CCC2(CO)CCC3(C)C(CCC4C5(C)CCCNC(C)(C)C5CCC43C)C12 (centres unmarked) was tested on CNS cancer subpanel; the reported GI50 is 1650

With CNS cancer subpanel as the test system, CC1(C)NCCC[C@]2(C)[C@H]3C=CC4=C5C[C@@](C)(CO)CC[C@]5(C)CC[C@@]4(C)[C@]3(C)CC[C@@H]12 showed GI50 of 4530

Let me check: CC(C)=C1CCC=C2CC[C@]3(C)[C@H](CC[C@@H]4[C@@]5(C)CCCNC(C)(C)[C@@H]5CC[C@]43C)[C@H]21 , system CNS cancer subpanel, measured GI50 is 1830

Summary: CC1(C)CC[C@]2(CO)CC[C@]3(C)C(=CC[C@@H]4[C@@]5(C)CCCNC(C)(C)[C@@H]5CC[C@]43C)[C@@H]2C1 , CNS cancer subpanel, GI50 = 6530

The compound C=C(C)[C@@H]1CC[C@]2(C)[C@H](CC=C3[C@@H]4[C@@H](C)[C@H](C)CC[C@]4(CO)CC[C@]32C)[C@@]1(C)CCCN on CNS cancer subpanel: GI50 was 1150

Entry C[C@H]1[C@H](C)CC[C@]2(CO)CC[C@]3(C)C(=CC[C@@H]4[C@@]5(C)CCCNC(C)(C)[C@@H]5CC[C@]43C)[C@H]12 : GI50 on CNS cancer subpanel = 1690

GI50 of C=C(C)[C@@H]1CCC=C2CC[C@]3(C)[C@H](CC[C@@H]4[C@@]5(C)CCCNC(C)(C)[C@@H]5CC[C@]43C)[C@H]21 , assay on CNS cancer subpanel, is 1790
